# measured-target: Dual specificity tyrosine-phosphorylation-regulated kinase 1A (Homo sapiens, UniProt Q13627)
# run-description: Inhibition of recombinant DYRK1A (unknown origin) using Ser/Thr 18 peptide as substrate incubated for 1 hr in presence of ATP by FRET assay
pEC50: −log10 of the molar value.
Use 8 as the dividing line for pEC50, with the line itself on the Fulfilled side and lower values as Not fulfilled.

>  <line-notation>
c1cncc(-c2cnc3[nH]nc(-c4nc5c(-c6cccs6)cccc5[nH]4)c3c2)c1

>  <assigned-category>
Not fulfilled

$$$$
>  <line-notation>
Cc1ccncc1-c1ccc2[nH]nc(-c3nc4c(-c5ccsc5)nccc4[nH]3)c2c1

>  <assigned-category>
Not fulfilled

$$$$
>  <line-notation>
CC(C)Nc1cncc(-c2cnc3[nH]nc(-c4nc5c(-c6ccoc6)nccc5[nH]4)c3c2)c1

>  <assigned-category>
Not fulfilled

$$$$
>  <line-notation>
CC(C)CC(=O)Nc1cncc(-c2cnc3[nH]nc(-c4cc5c(-c6cccnc6)ccnc5[nH]4)c3c2)c1

>  <assigned-category>
Fulfilled

$$$$

====

compounds and their reported log10(EC50)
# run-description: Effect on Wnt signaling pathway in human SW480 cells harbouring TCF/LEF luciferase reporter gene and SP5-Luc reporter gene incubated for 36 to 48 hrs by luminescence assay
# Format: cell-based
measurement-kind: log10(EC50) (log10 of the value in µM)

>  <line-notation>
CN(C)Cc1cncc(-c2cnc3[nH]nc(-c4nc5c(-c6cc(F)cc(N7CCOCC7)c6)cncc5[nH]4)c3c2)c1

>  <measurement-kind>
log10(EC50)

>  <value-measured>
-1.68

$$$$
>  <line-notation>
O=C(Nc1cccnc1)c1n[nH]cc1C#Cc1cncc(OC2CCNCC2)c1

>  <measurement-kind>
log10(EC50)

>  <value-measured>
0.10

$$$$
>  <line-notation>
O=C(Nc1cncc(-c2ccc3[nH]nc(-c4cc5cccnc5[nH]4)c3c2)c1)C1CCCC1

>  <measurement-kind>
log10(EC50)

>  <value-measured>
-0.57

$$$$
>  <line-notation>
CN1CCN(c2cncc3[nH]c(-c4n[nH]c5ccc(-c6cncc(CNCc7ccccc7)c6)cc45)cc23)CC1

>  <measurement-kind>
log10(EC50)

>  <value-measured>
0.52

$$$$
>  <line-notation>
CC(C)OCCCNC(=O)c1n[nH]c2ccc(-c3cccnc3)cc12

>  <measurement-kind>
log10(EC50)

>  <value-measured>
-0.33

$$$$
>  <line-notation>
Cc1ncc(NC(=O)c2n[nH]c3ccc(-c4cnn(C5CCN(C)CC5)c4)cc23)s1

>  <measurement-kind>
log10(EC50)

>  <value-measured>
-1.02

$$$$
>  <line-notation>
CCC(=O)Nc1cncc(-c2ccc3[nH]nc(-c4nc5c(-c6ccsc6)cncc5[nH]4)c3c2)c1

>  <measurement-kind>
log10(EC50)

>  <value-measured>
-2.70

$$$$
>  <line-notation>
O=C(Nc1cccnc1)c1n[nH]c2cnc(-c3cncc(CN4CCCCC4)c3)cc12

>  <measurement-kind>
log10(EC50)

>  <value-measured>
-0.07

$$$$
>  <line-notation>
CN(C)Cc1cncc(-c2ccc3[nH]nc(-c4cc5c(-c6cccnc6)cccc5[nH]4)c3n2)c1

>  <measurement-kind>
log10(EC50)

>  <value-measured>
-0.38

$$$$
>  <line-notation>
CN1CCC(n2cc(C(=O)Nc3ncc4ccc(-c5cncc6[nH]ccc56)cc4n3)cn2)CC1

>  <measurement-kind>
log10(EC50)

>  <value-measured>
0.15

$$$$
>  <line-notation>
CC(C)(C)CC(=O)Nc1cncc(-c2ccc3[nH]nc(-c4nc5ccncc5[nH]4)c3c2)c1

>  <measurement-kind>
log10(EC50)

>  <value-measured>
-1.68

$$$$
>  <line-notation>
c1cncc(-c2ccc3[nH]nc(-c4nc5c(-c6cccnc6)cccc5[nH]4)c3n2)c1

>  <measurement-kind>
log10(EC50)

>  <value-measured>
0.05

$$$$
>  <line-notation>
CC(C)Nc1cncc(-c2ccc3[nH]nc(-c4nc5c(-c6cccnc6)nccc5[nH]4)c3n2)c1

>  <measurement-kind>
log10(EC50)

>  <value-measured>
-0.01

$$$$
>  <line-notation>
Cc1cn(-c2cncc3[nH]c(-c4n[nH]c5ccc(-c6cncc(NC(=O)CC(C)C)c6)cc45)nc23)cn1

>  <measurement-kind>
log10(EC50)

>  <value-measured>
0.66

$$$$

====

# run-description: Effect on Wnt signaling pathway in human SW480 cells harbouring TCF/LEF luciferase reporter gene and SP5-Luc reporter gene incubated for 36 to 48 hrs by luminescence assay
# Type: cell-based
Threshold 400 nM: EC50 strictly smaller gives 1, otherwise -1.

>  <line-notation>
O=C(Nc1cncc(-c2cnc3[nH]nc(-c4cc5cnccc5[nH]4)c3c2)c1)c1ccccc1

>  <assigned-category>
-1

$$$$
>  <line-notation>
Cc1cn(-c2ccnc3[nH]c(-c4n[nH]c5ccc(-c6cncc(NC(=O)C7CCC7)c6)nc45)nc23)cn1

>  <assigned-category>
-1

$$$$
>  <line-notation>
O=C(Nc1cnccn1)c1n[nH]c2ccc(-c3cncc(CN4CCCCC4)c3)cc12

>  <assigned-category>
1

$$$$
>  <line-notation>
Cc1n[nH]c2ccc(-c3cncc(OC[C@H](N)Cc4ccccc4)n3)cc12

>  <assigned-category>
1

$$$$
>  <line-notation>
c1cnc2[nH]c(-c3n[nH]c4ccc(-c5cncc(CN6CCCCC6)c5)cc34)cc2c1

>  <assigned-category>
-1

$$$$
>  <line-notation>
CC(C)Nc1cncc(-c2cnc3[nH]nc(-c4cc5c(-c6ccccc6F)nccc5[nH]4)c3c2)c1

>  <assigned-category>
-1

$$$$
>  <line-notation>
Cc1n[nH]c2ccc(-c3cncc(N4CCC(O)CC4)n3)cc12

>  <assigned-category>
-1

$$$$
>  <line-notation>
Fc1ccc(-c2cccc3[nH]c(-c4n[nH]c5ncc(-c6cncc(CN7CCCCC7)c6)cc45)cc23)cc1

>  <assigned-category>
-1

$$$$
>  <line-notation>
CCC(=O)Nc1cncc(-c2ccc3[nH]nc(-c4cc5c(-c6cccc(F)c6)nccc5[nH]4)c3c2)c1

>  <assigned-category>
1

$$$$
>  <line-notation>
CCC(=O)Nc1cncc(-c2ccc3[nH]nc(-c4cc5c(-c6cccc(F)c6)cncc5[nH]4)c3c2)c1

>  <assigned-category>
1

$$$$
>  <line-notation>
O=C(CC1CCNCC1)Nc1cncc(-c2ccc3[nH]nc(-c4cc5c(N6CCCCC6)nccc5[nH]4)c3n2)c1

>  <assigned-category>
-1

$$$$
>  <line-notation>
CC(C)(C)C(=O)Nc1cncc(-c2ccc3[nH]nc(-c4cc5c(-c6ccncc6)ccnc5[nH]4)c3c2)c1

>  <assigned-category>
-1

$$$$
>  <line-notation>
Cc1n[nH]c2ccc(-c3cncc(N4CCC[C@H](N)C4)n3)cc12

>  <assigned-category>
-1

$$$$
>  <line-notation>
O=C(Nc1ccc(N2CCNCC2)nc1)c1n[nH]cc1/C=C/c1cccnc1

>  <assigned-category>
-1

$$$$
>  <line-notation>
O=C(CC1CCNCC1)Nc1cncc(-c2ccc3[nH]nc(-c4cc5c(-c6ccccn6)cccc5[nH]4)c3n2)c1

>  <assigned-category>
-1

$$$$
>  <line-notation>
CN1CCC(Oc2ccc(NC(=O)c3n[nH]c4ccc(-c5ccc(N)nc5)cc34)cc2)CC1

>  <assigned-category>
-1

$$$$
>  <line-notation>
CN1CCN(c2nccc3[nH]c(-c4n[nH]c5cnc(-c6cncc(NC(=O)c7ccccc7)c6)cc45)cc23)CC1

>  <assigned-category>
-1

$$$$
>  <line-notation>
Cc1n[nH]c2ccc(-c3cncc(N[C@H]4CCNC[C@@H]4F)n3)cc12

>  <assigned-category>
1

$$$$
>  <line-notation>
CS(=O)(=O)NCc1cc(F)cc(-c2nccc3[nH]c(-c4n[nH]c5ccc(-c6cncnc6)cc45)nc23)c1

>  <assigned-category>
1

$$$$
>  <line-notation>
O=C(Nc1cncc(-c2ccc3[nH]nc(-c4cc5c(-c6cccnc6)cncc5[nH]4)c3c2)c1)C1CCCC1

>  <assigned-category>
-1

$$$$
>  <line-notation>
CN1CCN(c2cccc3[nH]c(-c4n[nH]c5ccc(-c6cncc(CN7CCCCC7)c6)cc45)cc23)CC1

>  <assigned-category>
-1

$$$$
>  <line-notation>
c1cncc(-c2ccc3[nH]nc(-c4cc5cnccc5[nH]4)c3c2)c1

>  <assigned-category>
1

$$$$
>  <line-notation>
O=C(Nc1cncc(-c2ccc3[nH]nc(-c4nc5c(-c6ccccc6F)cccc5[nH]4)c3n2)c1)C(F)(F)F

>  <assigned-category>
-1

$$$$
>  <line-notation>
CC(C)(C)C(=O)Nc1cncc(-c2cc3c(-c4nc5c(-c6ccc(F)s6)nccc5[nH]4)n[nH]c3cn2)c1

>  <assigned-category>
1

$$$$
>  <line-notation>
Cn1cc(-c2ccc3[nH]nc(-c4cc5c(-c6cccnc6)cncc5[nH]4)c3c2)cn1

>  <assigned-category>
1

$$$$
>  <line-notation>
Cn1cc(-c2cc3c(-c4nc5c(-c6cccc(F)c6)cncc5[nH]4)n[nH]c3cn2)cn1

>  <assigned-category>
1

$$$$
>  <line-notation>
c1cc2cc(-c3n[nH]c4ccc(-c5cncc(OCCN6CCCC6)c5)cc34)[nH]c2cn1

>  <assigned-category>
-1

$$$$
>  <line-notation>
CC(C)CC(=O)Nc1cncc(-c2cnc3[nH]nc(-c4cc5c(-c6cc(F)cc(CNS(C)(=O)=O)c6)nccc5[nH]4)c3c2)c1

>  <assigned-category>
-1

$$$$
>  <line-notation>
NC(=O)c1n[nH]c2ccc(-c3cncc(CN4CCCCC4)c3)cc12

>  <assigned-category>
-1

$$$$
>  <line-notation>
CN1CCC(C(=O)Nc2cc3cc(-c4cnsc4)cnc3cn2)CC1

>  <assigned-category>
-1

$$$$
>  <line-notation>
O=C(Nc1ccc(CN2CCCC2)cc1)c1n[nH]c2ccc(-c3cccnc3F)cc12

>  <assigned-category>
1

$$$$
>  <line-notation>
FC1(F)CCN(Cc2cncc(-c3ccc4[nH]nc(-c5cc6cnccc6[nH]5)c4n3)c2)C1

>  <assigned-category>
1

$$$$
>  <line-notation>
O=C(Nc1cncc(-c2ccc3[nH]nc(-c4nc5c(-c6ccc(F)cc6)cncc5[nH]4)c3c2)c1)C1CCC1

>  <assigned-category>
1

$$$$
>  <line-notation>
Cc1n[nH]c2cc(F)c(-c3cncc(CN4CCCCC4)n3)cc12

>  <assigned-category>
-1

$$$$
>  <line-notation>
COc1cncc(C(=O)Nc2c[nH]nc2C(=O)Nc2ccc(N3CCC(F)(F)C3)nc2)c1

>  <assigned-category>
1

$$$$
